# target of assay: human JAK1 (a.a. 837-1142) (Homo sapiens, UniProt P23458)
# Construct: The catalytic domains of human JAK1 (a.a. 837-1142); His tag (N); made in house; host or cells: insect cells (baculovirus)
# Sequence (P23458 849-1154): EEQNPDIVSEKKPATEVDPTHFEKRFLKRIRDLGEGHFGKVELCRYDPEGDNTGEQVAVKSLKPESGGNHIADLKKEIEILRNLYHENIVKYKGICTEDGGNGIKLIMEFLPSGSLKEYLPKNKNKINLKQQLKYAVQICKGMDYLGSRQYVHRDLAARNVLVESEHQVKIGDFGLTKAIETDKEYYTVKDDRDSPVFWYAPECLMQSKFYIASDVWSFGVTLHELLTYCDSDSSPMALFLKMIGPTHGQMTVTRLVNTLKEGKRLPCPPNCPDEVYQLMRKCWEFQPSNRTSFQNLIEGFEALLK
# procedure text: In vitro JAK kinase assay (HTRF, phosphorylation of biotinylated peptide), JAK1
# Type: biochemical
# stated conditions: 1 mM ATP; Examples 92-162; read-out: JAK1 IC50 (nM) @ 1 mM ATP
Counter-ions that a name gives are not always drawn.
Can you tell me IC50 for the items I'm about to list?

Exam item: Specify IC50 for Cc1c(Nc2ccccc2)ncnc1N1CCC(C(CC#N)n2cc(-c3ncnc4[nH]ccc34)cn2)CC1 (stereo not shown) and stop.
Marked response: 20 to 50 nM

Exam item: Complete the entry with IC50 for N#CCC(C1CCN(c2cc(Oc3cccc(F)c3)ncn2)CC1)n1cc(-c2ncnc3[nH]ccc23)cn1 (stereo not shown)
Marked response: 20 to 50 nM

Exam item: Return the recorded IC50 value; entry: CCC(CN1CCN(S(=O)(=O)c2cccs2)CC1)n1cc(-c2ncnc3[nH]ccc23)cn1 (stereo not shown)
Marked response: < 20 nM

Exam item: Consider the compound N#CCC(CN1CCCN(S(=O)(=O)c2ccccc2OC(F)(F)F)CC1)n1cc(-c2ncnc3[nH]ccc23)cn1 (stereo not shown) . State its measured IC50.
Marked response: 20 to 50 nM

Exam item: Name the recorded IC50 of the compound listed here: N#CCC(CN1CCCN(S(=O)(=O)c2ccccc2C(F)(F)F)CC1)n1cc(-c2ncnc3[nH]ccc23)cn1 (stereo not shown)
Marked response: 20 to 50 nM

Exam item: For C[C@H]1CN(CC(CC#N)n2cc(-c3ncnc4[nH]ccc34)cn2)CCN1C(=O)c1ccc(C#N)cc1F (mixture of isomers) , write its IC50.
Marked response: 20 to 50 nM

Exam item: Report IC50 for COc1ccc(OC)c(S(=O)(=O)N2CCCN(CC(CC#N)n3cc(-c4ncnc5[nH]ccc45)cn3)CC2)c1 (stereo not shown)
Marked response: 20 to 50 nM

Exam item: Report IC50 for Cc1cc(S(=O)(=O)N2CCN(CC(C)n3cc(-c4ncnc5[nH]ccc45)cn3)CC2)c(C(F)(F)F)o1 (stereo not shown)
Marked response: 20 to 50 nM

Exam item: Query IC50 for CCC(CN1CCN(C(=O)c2ccc(O)cc2F)CC1)n1cc(-c2ncnc3[nH]ccc23)cn1 (stereo not shown)
Marked response: < 20 nM

Exam item: Supply IC50 value. Item: CCC(CN1CCN(S(=O)(=O)c2ccc(F)cc2F)CC1)n1cc(-c2ncnc3[nH]ccc23)cn1 (stereo not shown)
Marked response: < 20 nM

Exam item: Note IC50 for the compound shown: N#CCC(CN1CCN(C(=O)c2ccc(C#N)cc2F)CC1CO)n1cc(-c2ncnc3[nH]ccc23)cn1 (single isomer, unassigned) [156—peak 4, trifluoroacetate Salt]
Marked response: > 100 nM

Exam item: Using known records, supply IC50 for N#CCC(CN1CCCN(C(=O)c2ccc(F)cc2)CC1)n1cc(-c2ncnc3[nH]ccc23)cn1 (stereo not shown)
Marked response: 20 to 50 nM

Exam item: Give the measured IC50 for CCC(CN1CCN(S(=O)(=O)c2cccc(F)c2)CC1)n1cc(-c2ncnc3[nH]ccc23)cn1 (stereo not shown)
Marked response: < 20 nM

Exam item: Let me know recorded IC50 for CCC(CN1CCN(S(=O)(=O)c2ccc(F)cc2)CC1)n1cc(-c2ncnc3[nH]ccc23)cn1 (stereo not shown) , thanks.
Marked response: < 20 nM

Exam item: Could you please provide reported IC50 for C[C@@H]1CN(CC(CC#N)n2cc(-c3ncnc4[nH]ccc34)cn2)CCN1C(=O)c1ccc(C#N)cc1F (mixture of isomers) ? Thanks!
Marked response: 50 to 100 nM

Exam item: Complete the entry with IC50 for N#CCC(CN1CCCN(S(=O)(=O)c2ccccc2C#N)CC1)n1cc(-c2ncnc3[nH]ccc23)cn1 (stereo not shown)
Marked response: 20 to 50 nM

Exam item: Provide one value: measured IC50 of CC(CN1CCN(S(=O)(=O)c2ccccc2C#N)CC1)n1cc(-c2ncnc3[nH]ccc23)cn1 (stereo not shown)
Marked response: 20 to 50 nM

Exam item: Input N#CCC(CN1CCCN(C(=O)c2ccccc2F)CC1)n1cc(-c2ncnc3[nH]ccc23)cn1 (stereo not shown) , output reported IC50.
Marked response: 20 to 50 nM

Exam item: Report IC50 for CCC(CN1CCN(C(=O)c2cc(F)cc(F)c2)CC1)n1cc(-c2ncnc3[nH]ccc23)cn1 (stereo not shown)
Marked response: 20 to 50 nM

Exam item: Fill in IC50 for record N#CCC(CN1CCN(C(=O)c2ccc(C#N)cc2F)CC1C(F)F)n1cc(-c2ncnc3[nH]ccc23)cn1 (single isomer, unassigned) [Example 159—peak 1]
Marked response: > 100 nM

Exam item: Complete the entry with IC50 for Cc1ccccc1S(=O)(=O)N1CCCN(CC(CC#N)n2cc(-c3ncnc4[nH]ccc34)cn2)CC1 (stereo not shown)
Marked response: < 20 nM

Exam item: Please give measured IC50 of the following entry: N#CCC(CN1CCCN(C(=O)c2ccc(O)cc2F)CC1)n1cc(-c2ncnc3[nH]ccc23)cn1 (stereo not shown) [Example 97, bis(trifluoroacetate)]
Marked response: 20 to 50 nM

Exam item: State its IC50 for this compound: N#CCC(CN1CCN(C(=O)c2ccc(C#N)cc2F)CC1C(F)F)n1cc(-c2ncnc3[nH]ccc23)cn1 (single isomer, unassigned) [Example 159—peak 3]
Marked response: < 20 nM

Exam item: Output IC50 of COc1ccc(Br)cc1S(=O)(=O)N1CCCN(CC(CC#N)n2cc(-c3ncnc4[nH]ccc34)cn2)CC1 (stereo not shown)
Marked response: 20 to 50 nM

Exam item: Indicate the recorded IC50 value for this compound: N#CCC(CN1CCCN(C(=O)c2ccc(F)cc2F)CC1)n1cc(-c2ncnc3[nH]ccc23)cn1 (stereo not shown)
Marked response: 20 to 50 nM

Exam item: Specify measured IC50 for Cc1c(Nc2cccc(F)c2)ncnc1N1CCC(C(CC#N)n2cc(-c3ncnc4[nH]ccc34)cn2)CC1 (stereo not shown) .
Marked response: < 20 nM

Exam item: Entry N#CCC(CN1CCCN(C(=O)c2ccc(N)cc2F)CC1)n1cc(-c2ncnc3[nH]ccc23)cn1 (stereo not shown) needs its IC50 filled in; supply it.
Marked response: 20 to 50 nM

Exam item: Supply reported IC50 belonging to this compound: CCC(CN1CCN(S(=O)(=O)c2sccc2Cl)CC1)n1cc(-c2ncnc3[nH]ccc23)cn1 (stereo not shown)
Marked response: < 20 nM
